assay: Stat Signaling Pathway (AID 446); conditions: ME-180 SIE beta-lactamase reporter, IL-6 stimulated, 5 h; at 7.69 µM (top of the series) unless noted;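 further: ME-180 cervical cancer cells given 40 pM IL-6 alongside compound; SIE-controlled beta-lactamase reporter measured as 460/530 nm FRET emission ratio; on the % scale 0 is the no-effect control and ±100 the full control effect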
Records with an inconclusive call do not appear. Active and inactive are the calls of the source. The call rests on the fitted dose curve; in most records, active means well fitted curve in either direction with a large enough effect (not every such curve was filed as active); inconclusive means small, poorly fitted or top-dose-only effect, or another doubt; inactive means flat fitted curve, though single readings scatter.
Hi! Could you answer with just one of these? yes (active), no (inactive)

Identify the outcome logged in this assay for the molecule shown: FC(F)(F)c1ccccc1-c1ccc2ncnc(N3CCOCC3)c2c1 no

Also O=C(c1ccncc1)N1CCC[C@@]2(CCN(Cc3ccncc3)C2)C1 ? no

Also O=C(c1ccco1)N1CCC2(CCCN(Cc3ccccc3)C2)CC1 ? no

Also CC(C)NC(=O)N1CCCC2(CCN(C(=O)c3csnn3)CC2)C1 ? no

Also Cn1cccc1C(=O)N1CCC2(CC1)CCN(c1ccccn1)CC2 ? no

Also COCC(=O)N1CCC2(CCCN(c3ccccc3)C2)CC1 ? no

Also O=c1c(-c2cccs2)nc2cncnc2n1C1CC1 ? no

Also COCCn1c(=O)c(-c2ccc(OC)cc2)nc2cnc(N3CCOCC3)nc21 ? no

Also COCC(=O)N1CCC2(CC1)CCN(C(=O)NC(C)C)CC2 ? no

Also CN(C)c1ncc2nc(-c3cc(F)cc(F)c3)c(=O)n(Cc3cccs3)c2n1 ? yes

Also COCC(=O)N1CCC2(CCN(Cc3nccs3)CC2)CC1 ? no

Also FC(F)(F)c1ccccc1-c1nccc(NCCN2CCOCC2)n1 ? no

Also CC(=O)NCCNc1nc(-c2ccccc2CN(C)C)nc2ccccc12 ? no

Also N#Cc1cccc(NC(=O)N2CC3(CCN(C(=O)c4cc(C(F)(F)F)cc(C(F)(F)F)c4)CC3)C2)c1 ? no

Also O=C(Nc1cccc(F)c1)N1CC2(CCN(C(=O)c3ccncc3)CC2)C1 ? no

Also Cc1cnc(CNc2cc(-c3ccc4c(c3)OCO4)ncn2)cn1 ? no

Also Cc1noc(C)c1-c1nc(Nc2ccccc2)c2ccccc2n1 ? no

* * *

biological target: Dual specificity protein kinase CLK4 (Homo sapiens); test: qHTS Assay for Inhibitors of CDC-like Kinase 4 (Kinase-Glo Assay) (AID 1770); settings: recombinant Clk4, Kinase-Glo ATP depletion luminescence; series mostly up to 66.7 µM; further: nearly all actives have a fitted effect of over 65% in size; further: potency means the concentration at half of the fitted maximal effect
Records with an inconclusive call do not appear. Calls of active or inactive are those of the source. Calls come from the whole dose curve; as a rule, active = well fitted inhibition curve with a large enough effect; inconclusive = small, poorly fitted or top-dose-only effect; inactive = flat fitted curve, though single readings scatter.
observable: Potency

Give the reported Potency for Cc1cnc(CNc2nc(-c3c(C)noc3C)nc3ccccc23)cn1 (system: Dual specificity protein kinase CLK4 (Homo sapiens)). inactive

Also COc1ccc(-n2c(=O)c(-c3ccc(F)cc3)nc3cnc(N4CCNCC4)nc32)cc1 ? inactive

Also COc1cccc(Nc2ncc3ncc(=O)n(C[C@H]4CCCO4)c3n2)c1 ? 1.41 µM (active)

Also COc1cccc(Cn2c(=O)c(-c3cccs3)nc3cnc(OCc4ccccc4)nc32)c1 ? inactive

Also Cc1noc(C)c1-c1cncnc1N1CCN(C)CC1 ? inactive

Continuing:
Give the reported Potency for O=c1c(-c2ccc(Cl)cc2)nc2cnc(N3CCNCC3)nc2n1-c1ccccc1 (system: Dual specificity protein kinase CLK4 (Homo sapiens)). inactive

Also O=c1c(-c2cc(F)cc(F)c2)nc2cnc(N3CCNCC3)nc2n1Cc1ccc(F)cc1 ? inactive

Also COc1ccc(CNc2ccnc(-c3ccoc3)n2)c(OC)c1 ? inactive

Also CCNc1ncc2nc(-c3ccc(Cl)cc3)c(=O)n(-c3ccc(OC)cc3)c2n1 ? inactive

Also COc1cccc(-c2nccc(NCc3cccs3)n2)c1 ? 8.91 µM (active)

Also CN(C)C(=O)c1ccc(-c2cc(NCc3cccs3)ncn2)cc1 ? 20 µM (active)

Also COc1cccc(-c2cc(NCc3ccc(OC)cc3OC)ncn2)c1 ? 31.6 µM (active)

Also COc1ccccc1CNc1nc(-c2ccccc2OC)nc2ccccc12 ? inactive

* * *

Assay: AP1 Signaling Pathway (AID 357);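 further: ME-180 reporter cells stimulated with EGF at its EC50 level; on the % scale 0 is the no-effect control and ±100 the full control effect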
Details: ME-180 (cervical carcinoma) AP-1-bla reporter, EGF-induced, beta-lactamase ratio, 5 h; at 7.69 µM (top of the series) unless noted
Experimental: NCGC Assay Overview: Activator protein-1 (AP-1), a transcription factor, plays an important role in tumor genesis by regulating genes involved in cell proliferation, differentiation, apoptosis, and angiogenesis. AP-1 activity is induced by a complex network of signaling pathways that involves extracellular signals, such as growth factors. […] Library compounds were measured for their ability to modulate positively or negatively the action of EC50 EGF on reporter gene activity. […]
Results filed as inconclusive are left out.
observable: activity change, negative = inhibition (%)
// note: answer is a bare numeric in %

Recorded activity change, negative = inhibition for O=c1c(-c2ccccc2)nc2cncnc2n1Cc1ccc(F)cc1 , please? -20

Also COC(=O)N1CCC2(CCN(C(=O)Nc3cccc(F)c3)CC2)CC1 ? -21.3

Also COc1ccc2[nH]cc(CCNc3ccnc(-c4ccccc4C)n3)c2c1 ? -8.02

* * *

Target: Dual specificity protein kinase CLK4 (Homo sapiens)
Assay: qHTS Assay for Inhibitors of CDC-like Kinase 4 (ADP-Glo Assay) (AID 1771); further: nearly all actives have a fitted effect of over 70% in size
Settings: recombinant CLK4, ADP-Glo luminescence; series mostly up to 80 µM
Description: NIH Molecular Libraries Probe Production Centers Network [MLPCN] NIH Chemical Genomics Center [NCGC] […] In the assay, the ADP levels were detected using Promega ADP-Glo technology wherein the remaining ATP from the kinase reaction is first depleted with an ATPase reagent followed by a reagent that contains and enzyme which converts the ADP produced to ATP as well as Ultra-Glo luciferase and D-luciferin which generates a bioluminescence signal from the ATP. […]
Inconclusive results are not listed. The source made the active and inactive calls. The call rests on the fitted dose curve; in most records, active means well fitted inhibition curve with a large enough effect; inconclusive means small, poorly fitted or top-dose-only effect; inactive means flat fitted curve, though single readings scatter.
Hi! Could you answer with just one of these? T (active), F (inactive)

Identify the outcome logged in this assay for the compound shown: CCNc1ncc2nc(-c3ccc(F)cc3)c(=O)n(-c3ccccc3)c2n1 F

Also COc1ccccc1-c1cncnc1NCc1cnc(C)cn1 ? F

Also Cn1c(=O)c(-c2ccc(F)cc2)nc2cnc(N3CCOCC3)nc21 ? F

Also FC(F)(F)c1ccccc1-c1cncnc1NCc1ccccc1 ? F

Also O=c1c(-c2cccs2)nc2cnc(N3CCOCC3)nc2n1CCc1ccccc1 ? F

Also CN(C)Cc1ccccc1-c1nccc(Nc2ccc(F)cc2)n1 ? F

Also COc1ccccc1CNc1ncnc2ccc(-c3ccoc3)cc12 ? T

Also COc1cccc(Cn2c(=O)c(-c3cccs3)nc3cncnc32)c1 ? F

Also COCCn1c(=O)c(-c2cccc(C#N)c2)nc2cnc(N3CCN(C)CC3)nc21 ? F

Also COc1cccc(Cn2c(=O)c(-c3ccc(Cl)cc3)nc3cnc(N4CCN(C)CC4)nc32)c1 ? F

Also CS(=O)(=O)Nc1cccc(-c2nccc(NCc3cccs3)n2)c1 ? T

Also Cc1ccccc1-c1nc(NC2CC2)c2ccccc2n1 ? T

* * *

biological target: Ubiquitin carboxyl-terminal hydrolase 1 (Homo sapiens) (UniProt O94782); assay: Inhibitors of USP1/UAF1: Pilot qHTS (AID 504865); conditions: purified USP1/UAF1, Ub-rhodamine cleavage fluorescence; series mostly up to 54.9 µM; further: nearly all actives have a fitted effect of over 35% in size
Sequence (O94782 whole entry, looked up): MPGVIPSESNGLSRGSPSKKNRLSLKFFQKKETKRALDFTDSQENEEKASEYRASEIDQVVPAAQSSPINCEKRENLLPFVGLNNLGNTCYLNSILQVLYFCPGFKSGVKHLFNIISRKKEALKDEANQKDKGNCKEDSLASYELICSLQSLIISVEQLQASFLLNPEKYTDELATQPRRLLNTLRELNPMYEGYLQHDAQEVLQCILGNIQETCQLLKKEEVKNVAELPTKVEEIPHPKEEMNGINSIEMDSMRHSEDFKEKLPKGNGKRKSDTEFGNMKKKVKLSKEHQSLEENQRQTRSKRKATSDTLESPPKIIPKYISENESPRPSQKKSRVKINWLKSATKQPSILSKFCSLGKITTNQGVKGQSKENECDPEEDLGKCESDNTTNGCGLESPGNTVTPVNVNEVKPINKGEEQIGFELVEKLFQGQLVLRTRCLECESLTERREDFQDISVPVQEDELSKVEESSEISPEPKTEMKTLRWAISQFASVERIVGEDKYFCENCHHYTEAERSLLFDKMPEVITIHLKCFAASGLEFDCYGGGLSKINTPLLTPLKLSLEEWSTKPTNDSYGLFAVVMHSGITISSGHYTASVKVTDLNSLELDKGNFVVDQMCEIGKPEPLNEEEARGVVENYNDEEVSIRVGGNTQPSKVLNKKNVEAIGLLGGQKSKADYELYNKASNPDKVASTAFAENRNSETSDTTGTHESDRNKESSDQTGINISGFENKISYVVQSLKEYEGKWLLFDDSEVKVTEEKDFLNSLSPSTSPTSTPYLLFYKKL
Results filed as inconclusive are left out. The source made the active and inactive calls. The call rests on the fitted dose curve; in most records, active means well fitted inhibition curve with a large enough effect; inconclusive means small, poorly fitted or top-dose-only effect; inactive means flat fitted curve, though single readings scatter.
Hi! Could you answer with just one of these? active, inactive

Identify the outcome logged in this assay for the molecule shown: Cc1ccccc1-c1nc(NCc2cccnc2)c2ccccc2n1 active

Also CC(=O)O[C@@H](C)C[N+](C)(C)C ? inactive

Also COCCn1c(=O)c(CCc2ccccc2)nc2cnc(Nc3ccccc3)nc21 ? inactive

Also FC(F)(F)c1ccccc1-c1cncnc1NCCc1cnc[nH]1 ? inactive

Also COc1ccc2[nH]cc(CCNc3ncncc3-c3cccc(NS(C)(=O)=O)c3)c2c1 ? inactive

Also O=c1c(-c2cc(F)cc(F)c2)nc2cncnc2n1C1CC1 ? inactive

Also COc1cccc(Nc2ncc3nc(-c4cccs4)c(=O)n(CCC#N)c3n2)c1 ? inactive

Also Cc1ccccc1-c1cc(-n2ccnc2)ncn1 ? inactive

Also COc1cccc(-c2cc(NCc3cccnc3)ncn2)c1 ? inactive

Also COc1ccc2[nH]cc(CCNc3cc(-c4c(C)noc4C)ncn3)c2c1 ? inactive

Also COc1cccc(Cn2c(=O)c(-c3cc(F)cc(F)c3)nc3cncnc32)c1 ? inactive

Also FC(F)(F)c1ccccc1-c1nccc(NCCN2CCOCC2)n1 ? inactive

Also COc1ncc2nc(-c3ccc(F)cc3)c(=O)n(CCc3ccccc3)c2n1 ? inactive

Also O=C(/C=C/c1ccc(O)c(O)c1)OC(Cc1ccc(O)c(O)c1)C(=O)O (centres undefined) ? inactive

* * *

So I've got a bunch of compounds here, and I need their Potency values.
molecular target: Glucocorticoid receptor (Homo sapiens) (UniProt P04150); assay: GR-GFP Redistribution (AID 450); settings: U2OS GR-GFP nuclear translocation, laser cytometry, 2 h; further: potency means the concentration at half of the fitted maximal effect
Sequence (P04150 whole entry, looked up): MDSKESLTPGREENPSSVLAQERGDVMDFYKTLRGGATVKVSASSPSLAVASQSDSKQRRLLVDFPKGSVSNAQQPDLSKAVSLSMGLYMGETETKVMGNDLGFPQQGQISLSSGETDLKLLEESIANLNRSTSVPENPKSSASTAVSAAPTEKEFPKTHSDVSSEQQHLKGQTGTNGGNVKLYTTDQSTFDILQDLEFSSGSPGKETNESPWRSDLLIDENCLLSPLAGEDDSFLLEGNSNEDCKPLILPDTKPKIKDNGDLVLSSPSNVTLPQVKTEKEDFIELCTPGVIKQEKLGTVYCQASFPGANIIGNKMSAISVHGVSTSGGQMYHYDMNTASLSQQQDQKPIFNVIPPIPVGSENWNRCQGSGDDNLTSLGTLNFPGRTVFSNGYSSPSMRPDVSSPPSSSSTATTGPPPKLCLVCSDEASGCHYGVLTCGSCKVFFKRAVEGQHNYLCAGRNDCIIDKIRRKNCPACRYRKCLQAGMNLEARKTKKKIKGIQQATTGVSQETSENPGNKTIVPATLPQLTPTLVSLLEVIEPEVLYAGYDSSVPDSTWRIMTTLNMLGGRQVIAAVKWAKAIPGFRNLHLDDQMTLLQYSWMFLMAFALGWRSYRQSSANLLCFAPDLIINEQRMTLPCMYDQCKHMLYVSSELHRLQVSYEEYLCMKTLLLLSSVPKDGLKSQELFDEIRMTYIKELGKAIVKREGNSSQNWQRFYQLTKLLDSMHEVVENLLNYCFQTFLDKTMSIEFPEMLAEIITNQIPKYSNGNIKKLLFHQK
Calls of active or inactive are those of the source.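 Rule for the calls: active = compounds whose dose series gives a full or clear partial fitted curve of increased nuclear translocation; inconclusive = weak partial curve or effect only at the top dose; inactive = no dose-dependent translocation response.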

Recorded Potency for O=c1c(-c2ccc(F)cc2)nc2cncnc2n1C1CC1 , please? > 9.22 µM (inactive)

Also Cc1cc(C)c(S(=O)(=O)Nc2ccccc2C(F)(F)F)c(C)c1 ? > 46 µM (inactive)

Also CN(C)Cc1ccccc1-c1cncnc1Nc1ccc(F)cc1 ? > 46 µM (inactive)

Also CN(C)Cc1ccccc1-c1ccc2ncnc(NCc3ccccc3)c2c1 ? > 46 µM (inactive)

Also COc1cccc(-c2cncnc2NCCc2cnc[nH]2)c1 ? > 46 µM (inactive)

Also COc1ccccc1-c1ccc2ncnc(NC3CC3)c2c1 ? > 46 µM (inactive)

Also Cc1noc(C)c1-c1nc(NCCN2CCOCC2)c2ccccc2n1 ? > 46 µM (inactive)

Also CN(C)c1cc(-c2cccc(NS(C)(=O)=O)c2)ncn1 ? > 46 µM (inactive)

Also O=c1c(-c2cccs2)nc2cnc(N3CCNCC3)nc2n1Cc1cccs1 ? > 9.22 µM (inactive)

Also CN1CCN(c2ncnc3ccc(-c4cccnc4)cc23)CC1 ? > 46 µM (inactive)
